Listing of recorded Cmax by entry.
- procedure summary: Oral pharmacokinetic study in Sprague-Dawley rats
- condition label: rat, single oral dose 20 mg/kg, plasma, mean
- Method: Bioavailability is determined by the equation AUC=F·D/CLT, wherein AUC is the area under the plot of plasma concentration, F is the absolute bioavailability, D is the dose, and CLT is the total clearance. The rats received a single oral dose of 20 mg/kg body weight (b.w.). The doses were prepared as a 2.0 mg/mL suspension in a vehicle of 20 mM Na2HPO4 buffer containing 5% (v/v) DMSO, 0.4% (v/v) 1M NaOH and 0.4% (v/v) Tween 80 and a dose volume of 10 mL/kg b.w. […]

C#CCOc1ccc(/C=C/C(=O)Nc2ccccc2C(=O)O)cc1OC.CC(C)(C)N [tert-Butylamine (TBA) salt]: 32000 ng/mL
C#CCOc1ccc(/C=C/C(=O)Nc2ccccc2C(=O)O)cc1OC.NC(CO)(CO)CO [Tris salt]: 37367 ng/mL
C#CCOc1ccc(/C=C/C(=O)Nc2ccccc2C(=O)O)cc1OC.N [Ammonium salt]: 44033 ng/mL

Entry C#CCOc1ccc(/C=C/C(=O)Nc2ccccc2C(=O)[O-])cc1OC.[K+] [Potassium salt] ; Cmax = 34733 ng/mL
